Where do the numbers come from? From the supplement of paper PMC4840960.

# Test system: E18 rat cortical neuron-glia co-culture
# protocol summary: myelination (MBP fiber length per Olig2+ nucleus), % of 1 µM DAPT response (DMSO = 0) (% of DAPT); higher = more myelination, active = 50 or more
# condition notes: 5 µM; treatment time: 8 days (DIV5-DIV13)
Output Met for myelination not less than -10; output Not met otherwise.

Use the examples below as a reference point.
CN(C)c1ccc(O)c2c1C[C@H]1C[C@H]3[C@H](N(C)C)C(O)=C(C(N)=O)C(=O)[C@@]3(O)C(O)=C1C2=O : Met
C[C@@H]1C[C@H]2[C@@H]3C[C@H](F)C4=CC(=O)C(Cl)=C[C@]4(C)[C@@]3(F)[C@@H](O)C[C@]2(C)[C@@]1(O)C(=O)CO [Halometasone hydrate] : Not met
Cc1ccnc2c1NC(=O)c1cccnc1N2C1CC1 : Met
CC(C)C[C@H](NC(=O)[C@@H](O)[C@H](N)Cc1ccccc1)C(=O)O : Met
Nc1ccn([C@H]2CC[C@@H](CO)O2)c(=O)n1 : Met

Prompt: Quick check, myelination >= -10? COc1ccc(CC2c3cc(OC)c(OC)cc3CC[N+]2(C)CCC(=O)OCCCCCOC(=O)CC[N+]2(C)CCc3cc(OC)c(OC)cc3C2Cc2ccc(OC)c(OC)c2)cc1OC (stereo not drawn)
Completion: Met

Prompt: Check `O=c1[nH]cnc2c1ncn2[C@H]1CC[C@@H](CO)O1` too.
Completion: Not met

###

# Test system: E18 rat cortical neuron-glia co-culture
# protocol summary: fiber score / MBP score (myelination specific beyond OL differentiation) (ratio); higher = more myelination-specific MBP alignment
# condition notes: 5 µM; treatment time: 8 days (DIV5-DIV13)
property name: fiber score / MBP score
One number for each entry.

COc1cc(C)c(Cc2cnc(N)nc2N)cc1OC [Ormetoprim] : 0.726
CC(=O)CCCCn1c(=O)c2c(ncn2C)n(C)c1=O [Pentoxifylline] : 0.839
CN1[C@@H](CC(=O)c2ccccc2)CCC[C@H]1C[C@H](O)c1ccccc1 [Lobeline] : 0.451

Could you report fiber score / MBP score for every entry in the following list?
1. NC(Cc1cc(I)c(Oc2cc(I)c(O)c(I)c2)c(I)c1)C(=O)O (stereo not given) [Thyroxine]
2. CNC[C@H](O)c1ccc(O)c(O)c1 [Epinephrine]

Completion:
1. 1.19
2. 3.29

###

# Test system: E18 rat cortical neuron-glia co-culture
# protocol summary: fiber score / MBP score (myelination specific beyond OL differentiation) (ratio); higher = more myelination-specific MBP alignment
# condition notes: 5 µM; treatment time: 8 days (DIV5-DIV13)
So basically, the class depends on measured fiber score / MBP score, and the ranges are range 1 (below 0.7), range 2 (0.7 to below 0.8), range 3 (0.8 or more)

CC1=C(C/C=C(\C)CCC[C@H](C)CCC[C@H](C)CCCC(C)C)C(=O)c2ccccc2C1=O : range 2

Prompt: For this compound, which bin applies? CC(=O)N1CCN(c2ccc(OCC3COC(Cn4ccnc4)(c4ccc(Cl)cc4Cl)O3)cc2)CC1 (stereo not given)
Completion: range 1

Prompt: Check `C#C[C@]1(O)CC[C@H]2[C@@H]3CCC4=CC(=O)CC[C@@H]4[C@H]3CC[C@@]21C` too.
Completion: range 3

Prompt: Check `CC[C@H]1OC(=O)[C@H](C)[C@@H](O[C@H]2C[C@@](C)(OC)[C@@H](O)[C@H](C)O2)[C@H](C)[C@@H](O[C@@H]2O[C@H](C)C[C@H](N(C)C)[C@H]2O)[C@](C)(O)C[C@@H](C)CN(C)[C@H](C)[C@@H](O)[C@]1(C)O` too.
Completion: range 1

Prompt: Check `COc1ccc(CN2CCN(C(c3ccc(F)cc3)c3ccc(F)cc3)CC2)c(OC)c1OC` too.
Completion: range 1

Prompt: Check Cc1cccc(C)c1NC(=O)C1CCCCN1C (stereo not given) [Mepivacaine] too.
Completion: range 3

Prompt: Check `O=C(O)CCCc1ccccc1` too.
Completion: range 2

Prompt: Check CN(C)CCC=C1c2ccccc2COc2ccccc21 [Doxepin] too.
Completion: range 2
